experimental_readout: melting point (°C)
Output spec: scalar in °C, unitless text.

Sample CC(C(O)c1ccc(O)cc1)N1CCC(Cc2ccccc2)CC1 (stereo not drawn) — what was its melting point? 114

I would be grateful if you could share the reported melting point for CCOC(=O)c1ccc(N)cc1 [ethyl_4-aminobenzoate] . 89

// lookup melting point for O=C(O)CCCCC(=O)O 153

For the compound C/C=C\CC [cis-2-pentene] , what melting point is on record? -151

Quick one: melting point for ClCC(Cl)CCl ? -14

Name the reported melting point value associated with the compound O=c1[nH]c2ccccc2n1CCCN1CCC(n2c(=O)[nH]c3cc(Cl)ccc32)CC1 242

Param item = CCOC(=O)c1c[nH]nc1C(F)(F)F [ethyl 3-trifluoromethyl-1h-pyrazole-4-carboxylate] ; retrieve measured melting point. 144

# melting point lookup, item O=Cc1cc([N+](=O)[O-])ccc1Cl 71
